Reference source for all entries: ChEMBL document CHEMBL1126988

Tested on: Enterococcus faecalis
procedure_text: Minimum inhibitory concentration was evaluated in vitro against Enterococcus faecalis MGH-2
Format: functional
quantity: MIC (µg/mL)
Give the value, in units of µg/mL, as a plain number.

Recorded MIC (compound CCN[C@@H](C)[C@@H]1CCN(c2c(F)c(N)c3c(=O)c(C(=O)O)cn(C4CC4)c3c2F)C1 (stereo in doubt; 32H-S,S) ): 0.2

---

System: Staphylococcus aureus
procedure_text: Minimum inhibitory concentration was evaluated in vitro against Staphylococcus aureus H 228
Format: functional
Overview of reported log10 of MIC across a group of compounds:
Log10 applied to MIC; unit prior to transform: µg/mL.

Reference set, count: 6
compound | quantity | measurement
CC(N)C1CCN(c2c(F)cc3c(=O)c(C(=O)O)cn(C4CC4)c3c2C(F)(F)F)C1 (stereo in doubt; 36F-R,R) | log10 of MIC | -1.00
CN[C@H](C)[C@H]1CCN(c2c(F)c(N)c3c(=O)c(C(=O)O)cn(C4CC4)c3c2F)C1 | log10 of MIC | -1.00
CCN[C@H](C)[C@H]1CCN(c2cc3c(cc2F)c(=O)c(C(=O)O)cn3C2CC2)C1 (mixture of isomers; form 1) | log10 of MIC | -0.40
C[C@H](N)[C@H]1CCN(c2c(F)c(N)c3c(=O)c(C(=O)O)cn(C4CC4)c3c2F)C1 (stereo in doubt; 32F-S,R) | log10 of MIC | -1.60
CC(N)C1CCN(c2c(F)cc3c(=O)c(C(=O)O)cn(C4CC4)c3c2C(F)(F)F)C1 (racemic) | log10 of MIC | -1.89
CCN[C@@H](C)[C@@H]1CCN(c2nc3c(cc2F)c(=O)c(C(=O)O)cn3C2CC2)C1 | log10 of MIC | -0.70

Recorded log10 of MIC (compound CCN[C@H](C)[C@H]1CCN(c2cc3c(cc2F)c(=O)c(C(=O)O)cn3C2CC2)C1 (mixture of isomers; form 2) ): -1.00
